- Target Or System: T1, HLA-B08.01 (human)
- T1 construct: Purified class I MHC
- Experimental Protocol: competition with radiolabeled reference peptide, purified MHC I
Quantity Name: pIC50
Give bare numbers, as −log10 of the molar value.

Look at this binder and give its reported pIC50. KLMLLRLNL (also called SEC31A(-1))
7.23
